- Tested on: NCI-H322M
- test: relative viability (nuclei count vs DMSO), 5 days (fraction); higher = more cells survive
- testContext: first compound 0.03162 µM
Binary call on relative viability with cut-off 0.9: strictly below means yes (1), and equality or higher means no (0).

| molecule | classAssignment |
| --- | --- |
| NC(=O)Nc1cc(-c2cccc(F)c2)sc1C(=O)N[C@H]1CCCNC1 [AZD7762] + COc1cc2c(Oc3ccc(NC(=O)C4(C(=O)Nc5ccc(F)cc5)CC4)cc3F)ccnc2cc1OCCCN1CCOCC1 [Foretinib] (partner 0.25 µM) | no (0) |
| NC(=O)Nc1cc(-c2cccc(F)c2)sc1C(=O)N[C@H]1CCCNC1 [AZD7762] + CCNC(=O)c1noc(-c2cc(C(C)C)c(O)cc2O)c1-c1ccc(CN2CCOCC2)cc1 [Luminespib] (partner 0.01 µM) | yes (1) |

I'd appreciate it if you could check whether NC(=O)Nc1cc(-c2cccc(F)c2)sc1C(=O)N[C@H]1CCCNC1 [AZD7762] + O=C(c1cc(Cc2n[nH]c(=O)c3ccccc23)ccc1F)N1CCN(C(=O)C2CC2)CC1 [Olaparib] (partner 8 µM) has relative viability smaller than 0.9.
no (0)

I'd appreciate it if you could check whether NC(=O)Nc1cc(-c2cccc(F)c2)sc1C(=O)N[C@H]1CCCNC1 [AZD7762] + Nc1ncn([C@H]2C[C@H](O)[C@@H](CO)O2)c(=O)n1 [Decitabine] (partner 2 µM) has relative viability smaller than 0.9.
yes (1)

I'd appreciate it if you could check whether NC(=O)Nc1cc(-c2cccc(F)c2)sc1C(=O)N[C@H]1CCCNC1 [AZD7762] + Cc1nc(Nc2ncc(C(=O)Nc3c(C)cccc3Cl)s2)cc(N2CCN(CCO)CC2)n1 [Dasatinib] (partner 0.075 µM) has relative viability smaller than 0.9.
yes (1)

I'd appreciate it if you could check whether NC(=O)Nc1cc(-c2cccc(F)c2)sc1C(=O)N[C@H]1CCCNC1 [AZD7762] + CS(=O)(=O)N1CCN(Cc2cc3nc(-c4cccc5[nH]ncc45)nc(N4CCOCC4)c3s2)CC1 [Pictilisib] (partner 1 µM) has relative viability smaller than 0.9.
yes (1)
